Reported values of melting point for individual entries

Consider the worked cases shown below.
INSERT INTO assay_data (smiles_representation, result) VALUES
  ('Cn1ccc(OCc2ccc(-c3noc(C(F)(F)F)n3)cc2)n1', '84.9 to 87.8 °C'),
  ('FC(F)(F)c1nc(-c2ccc(COc3ccccn3)cc2)no1', '86 to 88 °C'),
  ('Fc1ccc(OCc2ccc(-c3noc(C(F)(F)F)n3)cc2)cc1', '174 to 176 °C');

# return recorded melting point for entry Fc1ccccc1OCc1ccc(-c2noc(C(F)(F)F)n2)cc1
108 to 110 °C

Identify measured melting point associated with Cc1ccc(OCc2ccc(-c3noc(C(F)(F)F)n3)cc2)nc1
141 to 143 °C

* * *

Reported melting point is given for each of the following compounds.

Take a look at these entries with their results.
INSERT INTO results (compound, result) VALUES
  ('CC1(C)CC(OCc2ccc(-c3noc(C(F)(F)F)n3)cc2)=NO1', '107.9 to 108.6 °C'),
  ('CC(C)C(=O)OCc1ccc(-c2noc(C(F)(F)F)n2)cc1', '48 to 50 °C'),
  ('FC(F)(F)c1nc(-c2ccc(COc3ccccc3)cc2)no1', '105 to 107 °C'),
  ('Cc1cccc(OCc2cc(F)c(-c3noc(C(F)(F)F)n3)cc2F)n1', '91 to 94 °C'),
  ('CN(C(=O)OCc1ccc(-c2noc(C(F)(F)F)n2)cc1)c1ccccn1', '110 to 112 °C'),
  ('CC1(C)CON=C1OCc1ccc(-c2noc(C(F)(F)F)n2)cc1', '50.2 to 51.8 °C');

Find the measured melting point of FC(F)(F)c1nc(-c2ccc(COc3ccon3)cc2)no1 and report it.
61.8 to 64.4 °C

Give me measured melting point, please, for this compound: Cn1nnnc1OCc1ccc(-c2noc(C(F)(F)F)n2)cc1
113.3 to 114.2 °C

Identify the reported melting point for the following entry. CNC(=O)OCc1ccc(-c2noc(C(F)(F)F)n2)cc1
100 to 102 °C

* * *

quantity name: melting point

INSERT INTO results (smiles_representation, result) VALUES
  ('Cc1cccc(OCc2cc(F)c(-c3noc(C(F)(F)F)n3)c(F)c2)n1', '65 to 66 °C');

Consider now this further compound.
Entry Fc1ccc(OCc2ccc(-c3noc(C(F)(F)F)n3)cc2)nc1 needs its melting point filled in; supply it.
84 to 86 °C

* * *

Measured melting point by item

Worked examples follow.
INSERT INTO measurements (compound, result) VALUES
  ('Cc1cc(OCc2ccc(-c3noc(C(F)(F)F)n3)cc2)n[nH]1 [Compound 1.19]', '137.4 to 141.8 °C'),
  ('CC(Oc1nnnn1C)c1ccc(-c2noc(C(F)(F)F)n2)cc1 (centres unmarked) [Compound 1.22]', '104 to 106 °C'),
  ('CN(C)C(=O)OCc1ccc(-c2noc(C(F)(F)F)n2)cc1 [Compound 3.1]', '95 to 97 °C'),
  ('Cc1cc(OCc2ccc(-c3noc(C(F)(F)F)n3)cc2)no1 [Compound 1.5]', '81.2 to 82.6 °C'),
  ('CC(=O)n1ccc(OCc2ccc(-c3noc(C(F)(F)F)n3)cc2)n1 [Compound 1.18]', '86.1 to 87.3 °C'),
  ('CC1=NN(C)C(=O)C1=NOCc1ccc(-c2noc(C(F)(F)F)n2)cc1 [Compound 4.4]', '110 to 111 °C'),
  ('N#Cc1ccc(OCc2ccc(-c3noc(C(F)(F)F)n3)cc2)nc1 [Compound 1.14]', '156 to 158 °C');

Give the reported melting point for this compound. Fc1c(COc2ccccc2)ccc(-c2noc(C(F)(F)F)n2)c1F [Compound 1.12]
113 to 115 °C

* * *

quantity name: melting point

Sample answers from the record:
INSERT INTO results (smiles_representation, quantity_name, result) VALUES
  ('CC(C)=NOCc1ccc(-c2noc(C(F)(F)F)n2)cc1', 'melting point', '48 to 52 °C'),
  ('C/C(=N/OCc1ccc(-c2noc(C(F)(F)F)n2)cc1)n1ccnc1', 'melting point', '51 to 53 °C');

Now consider the entry below.
For Fc1cccc(F)c1OCc1ccc(-c2noc(C(F)(F)F)n2)cc1 , write its melting point.
66 to 68 °C
